- System: Escherichia coli IAI1
- ASSAY_NOTES: growth (OD595) fold change vs plate DMSO controls (fold change (ratio)); higher = more growth
- CONDITION_CONTEXT: incubation time: 27 h, anaerobic, 37 °C
Counter-ions that a name gives are not always drawn.
Quick list: growth per entry.
// print number alone

Record excerpt, results attached:
{"COMPOUND": "CCCSc1ccc2[nH]c(NC(=O)OC)nc2c1 [Albendazole] (20 µM)", "PARAMETER_MEASURED": "growth", "READOUT_NUMBER": 1.01}
{"COMPOUND": "CC(=O)OCC(=O)[C@@]12OC3(CCCC3)O[C@@H]1C[C@H]1[C@@H]3CCC4=CC(=O)C=C[C@]4(C)[C@@]3(F)[C@@H](O)C[C@@]12C [Amcinonide] (20 µM)", "PARAMETER_MEASURED": "growth", "READOUT_NUMBER": 1.02}
{"COMPOUND": "Cc1ccc(=O)n(-c2ccccc2)c1 [Pirfenidone] (20 µM)", "PARAMETER_MEASURED": "growth", "READOUT_NUMBER": 0.995}

Tell me the measured growth of N[C@@H](Cc1cc(I)c(Oc2cc(I)c(O)c(I)c2)c(I)c1)C(=O)O [(L) Thyroxine] (20 µM) , please.
0.975

Could you share which growth value was measured for COCCCC/C(=N\OCCN)c1ccc(C(F)(F)F)cc1 [Fluvoxamine maleate] (20 µM) ?
0.976

Recorded growth of CC(=O)N(O)CCCCCNC(=O)CCC(=O)N(O)CCCCCNC(=O)CCC(=O)N(O)CCCCCN [Deferoxamine mesylate] (20 µM) , please.
0.997

====

growth values, listed per item
- Tested on: Clostridium sporogenes DSM 1664
- ASSAY_NOTES: growth (OD595) fold change vs plate DMSO controls (fold change (ratio)); higher = more growth
- CONDITION_CONTEXT: incubation time: 27 h, anaerobic, 37 °C
Structures can show the parent of a compound that is named as a salt.
Write no unit; give the number alone.

{"COMPOUND": "c1ccc2c(c1)ccc1ccccc12 [Phenanthrene] (20 µM)", "growth": 0.976}

For the compound Cc1c(OCC(F)(F)F)ccnc1C[S+]([O-])c1nc2ccccc2[nH]1 (stereo not given) [Lansoprazole] (20 µM) , what growth is on record?
1

// lookup growth for CCCOc1cc(N)ccc1C(=O)OCCN(CC)CC [Propoxycaine hydrochloride] (20 µM)
0.975

Quick check: growth of CCCCC[C@H](O)/C=C/[C@H]1[C@H](O)CC(=O)[C@@H]1CCCCCCC(=O)O [Alprostadil] (20 µM) ?
1.02

Which growth value is on record for C[C@H]1C[C@H]2[C@@H]3CCC4=CC(=O)C=C[C@]4(C)[C@@]3(F)[C@@H](O)C[C@]2(C)[C@@]1(O)C(=O)CO [Betamethasone] (20 µM) ?
1.02

====

- Test system: Clostridium sporogenes DSM 1664
- ASSAY_NOTES: growth (OD595) fold change vs plate DMSO controls (fold change (ratio)); higher = more growth
- CONDITION_CONTEXT: incubation time: 27 h, anaerobic, 37 °C
Structures can show the parent of a compound that is named as a salt.
PARAMETER_MEASURED: growth
Please respond with just the number, no unit label.

Here is how some compounds turned out for growth.
{"COMPOUND": "CC(C)(C(=O)c1cccnc1)c1cccnc1 [Metyrapone] (20 µM)", "TARGET_UNDER_TEST": "Clostridium sporogenes DSM 1664", "growth": 1.01}
{"COMPOUND": "CCN(CCCc1ccccc1)CCCc1ccccc1 [Alverine citrate salt] (20 µM)", "TARGET_UNDER_TEST": "Clostridium sporogenes DSM 1664", "growth": 0.998}
{"COMPOUND": "CC1(C)OC(=O)NC1=O [Dimethadione] (20 µM)", "TARGET_UNDER_TEST": "Clostridium sporogenes DSM 1664", "growth": 0.999}
{"COMPOUND": "O=C(O)c1cccnc1 [Niacin] (20 µM)", "TARGET_UNDER_TEST": "Clostridium sporogenes DSM 1664", "growth": 0.979}
{"COMPOUND": "CS(=O)(=O)Nc1ccc([N+](=O)[O-])cc1Oc1ccccc1 [Nimesulide] (20 µM)", "TARGET_UNDER_TEST": "Clostridium sporogenes DSM 1664", "growth": 1.01}
{"COMPOUND": "COc1c2occc2c(OC)c2c(=O)cc(C)oc12 [Khellin] (20 µM)", "TARGET_UNDER_TEST": "Clostridium sporogenes DSM 1664", "growth": 0.981}
{"COMPOUND": "CCC[C@H](N[C@@H](C)C(=O)N1[C@H](C(=O)O)C[C@@H]2CCCC[C@@H]21)C(=O)OCC [Perindopril] (20 µM)", "TARGET_UNDER_TEST": "Clostridium sporogenes DSM 1664", "growth": 0.997}

Please look at the following compound next.
Quick one: growth of Clc1ccc(C(c2ccccc2Cl)C(Cl)Cl)cc1 (stereo not drawn) [Mitotane] (20 µM) ?
1.01

====

- Test system: Escherichia coli IAI1
- ASSAY_NOTES: growth (OD595) fold change vs plate DMSO controls (fold change (ratio)); higher = more growth
- CONDITION_CONTEXT: incubation time: 27 h, anaerobic, 37 °C
Reported growth by item:

Below are worked cases with known answers.
{"COMPOUND": "Cc1ccc(-c2ncc(Cl)cc2-c2ccc(S(C)(=O)=O)cc2)cn1 [Etoricoxib] (20 µM)", "PARAMETER_MEASURED": "growth", "RESULT": 1.02}
{"COMPOUND": "COc1ccc(-c2noc(CC(=O)O)c2-c2ccc(OC)cc2)cc1 [Mofezolac] (20 µM)", "PARAMETER_MEASURED": "growth", "RESULT": 1.01}

Switching to the query record.
Look up growth: CCN(CC)C(=O)c1cccnc1 [Nikethamide] (20 µM)
1.01

====

- Tested on: Escherichia coli IAI1
- ASSAY_NOTES: fold change of Cadaverine concentration vs plate DMSO controls (fold change (ratio)); higher = more amine produced, active = hit call of the paper (significant change in both replicates, either direction)
- CONDITION_CONTEXT: incubation time: 27 h, anaerobic, 37 °C
Counter-ions that a name gives are not always drawn.
fold change of Cadaverine concentration for assorted compounds
The answer should be a number; do not append a unit.

Known fold change of Cadaverine concentration results, listed for orientation:
{"COMPOUND": "CC1=NN(c2ccccc2)C(=O)C1 [Edaravone] (20 µM)", "TARGET_UNDER_TEST": "Escherichia coli IAI1", "PARAMETER_MEASURED": "fold change of Cadaverine concentration", "READOUT_NUMBER": 0.986}
{"COMPOUND": "COc1cc2c(cc1OC)C(=O)C(CC1CCN(Cc3ccccc3)CC1)C2 (stereo not given) [Donepezil hydrochloride] (20 µM)", "TARGET_UNDER_TEST": "Escherichia coli IAI1", "PARAMETER_MEASURED": "fold change of Cadaverine concentration", "READOUT_NUMBER": 0.981}
{"COMPOUND": "COCC(=O)Nc1c(I)c(C(=O)NCC(O)CO)c(I)c(C(=O)N(C)CC(O)CO)c1I (stereo not given) [Iopromide] (20 µM)", "TARGET_UNDER_TEST": "Escherichia coli IAI1", "PARAMETER_MEASURED": "fold change of Cadaverine concentration", "READOUT_NUMBER": 0.989}

Would you mind telling me what fold change of Cadaverine concentration value was observed for CCOc1cc(N)c(Cl)cc1C(=O)NCC1CN(Cc2ccc(F)cc2)CCO1 (stereo not given) [Mosapride] (20 µM) ?
0.998

Item under review: O=S(=O)(O)CCS [Coenzyme M] (20 µM) . Reported fold change of Cadaverine concentration?
0.979

====

- System: Klebsiella aerogenes DSM 30053
- ASSAY_NOTES: fold change of Histamine concentration vs plate DMSO controls (fold change (ratio)); higher = more amine produced, active = hit call of the paper (significant change in both replicates, either direction);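 for the amine columns active = adjusted P below 0.05 in both replicates with a change the same way and a mean fold change under 0.8 or over 1.25; inactive = the rest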
- CONDITION_CONTEXT: incubation time: 27 h, anaerobic, 37 °C
Structures can show the parent of a compound that is named as a salt.
Hello, when you answer, please use one of the following outcomes: Y for active, N for inactive

Worked cases, answers included:
{"COMPOUND": "COc1cc(C)c(/C=C/C(C)=C/C=C/C(C)=C/C(=O)O)c(C)c1C [Acitretin] (20 µM)", "TARGET_UNDER_TEST": "Klebsiella aerogenes DSM 30053", "CLASS_NAME": "N"}
{"COMPOUND": "O=C(CCCN1CCN(c2ccccn2)CC1)c1ccc(F)cc1 [Azaperone] (20 µM)", "TARGET_UNDER_TEST": "Klebsiella aerogenes DSM 30053", "CLASS_NAME": "N"}
{"COMPOUND": "NC(=O)c1cn(Cc2c(F)cccc2F)nn1 [Rufinamide] (20 µM)", "TARGET_UNDER_TEST": "Klebsiella aerogenes DSM 30053", "CLASS_NAME": "N"}
{"COMPOUND": "Cc1c(C)c2c(c(C)c1O)CCC(C)(C(=O)O)O2 (stereo unspecified) [Trolox] (20 µM)", "TARGET_UNDER_TEST": "Klebsiella aerogenes DSM 30053", "CLASS_NAME": "N"}
{"COMPOUND": "C1N2CN3CN1CN(C2)C3 [Methenamine] (20 µM)", "TARGET_UNDER_TEST": "Klebsiella aerogenes DSM 30053", "CLASS_NAME": "N"}
{"COMPOUND": "Cc1onc(-c2ccccc2)c1-c1ccc(S(N)(=O)=O)cc1 [Valdecoxib] (20 µM)", "TARGET_UNDER_TEST": "Klebsiella aerogenes DSM 30053", "CLASS_NAME": "N"}

Per the assay record, what outcome was assigned to CN[C@@H]1[C@H](O)[C@H](NC)[C@H]2O[C@@]3(O)C(=O)C[C@@H](C)O[C@H]3O[C@@H]2[C@H]1O [Spectinomycin dihydrochloride] (20 µM) ?
N

Please state the recorded outcome for this compound: NNC(=O)c1ccncc1 [Isoniazid] (20 µM)
N

In this assay, the call recorded for CC(=O)O[C@]1(C(C)=O)CC[C@H]2[C@@H]3C=C(C)C4=CC(=O)CC[C@@H]4[C@H]3CC[C@@]21C [Nomegestrol acetate] (20 µM) was what?
N

Tell me the assay call for CC1CNc2c(cccc2S(=O)(=O)N[C@@H](CCCNC(=N)N)C(=O)N2CC[C@@H](C)C[C@@H]2C(=O)O)C1 (stereo partly specified) [Argatroban] (20 µM) please.
N

Dear colleague, could you share the recorded outcome for CC1COc2c(N3CCN(C)CC3)c(F)cc3c(=O)c(C(=O)O)cn1c23 (stereo unspecified) [Ofloxacin] (20 µM) when you have a moment?
Y

Taken from the supplement of paper PMC12494721.
